- EXPERIMENTAL TARGET: Factor X (FX), P00742
- Sequence (P00742 whole entry, looked up): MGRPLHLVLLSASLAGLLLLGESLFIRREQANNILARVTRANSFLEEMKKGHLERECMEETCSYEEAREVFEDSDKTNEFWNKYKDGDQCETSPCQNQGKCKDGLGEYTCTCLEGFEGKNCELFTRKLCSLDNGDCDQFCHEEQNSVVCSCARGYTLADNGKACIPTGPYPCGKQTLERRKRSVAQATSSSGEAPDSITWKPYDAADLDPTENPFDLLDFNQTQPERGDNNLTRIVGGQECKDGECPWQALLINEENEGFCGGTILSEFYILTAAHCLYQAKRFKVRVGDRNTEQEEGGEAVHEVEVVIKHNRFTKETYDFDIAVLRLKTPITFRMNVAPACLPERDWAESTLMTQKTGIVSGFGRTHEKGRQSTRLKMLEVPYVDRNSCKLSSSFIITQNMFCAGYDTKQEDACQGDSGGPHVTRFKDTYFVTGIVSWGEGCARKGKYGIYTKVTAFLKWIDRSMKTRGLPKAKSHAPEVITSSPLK
QUANTITY KIND: KM (nM); Catalytic activity of FIXa variants (KM)

[[record]]
protein = "FIXa-Y155F/K247N/N249S/N260S (protein) chain 1: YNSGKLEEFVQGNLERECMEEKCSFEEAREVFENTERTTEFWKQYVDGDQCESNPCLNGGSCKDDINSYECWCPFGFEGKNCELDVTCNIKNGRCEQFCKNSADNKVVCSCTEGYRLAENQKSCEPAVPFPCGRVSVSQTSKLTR chain 2: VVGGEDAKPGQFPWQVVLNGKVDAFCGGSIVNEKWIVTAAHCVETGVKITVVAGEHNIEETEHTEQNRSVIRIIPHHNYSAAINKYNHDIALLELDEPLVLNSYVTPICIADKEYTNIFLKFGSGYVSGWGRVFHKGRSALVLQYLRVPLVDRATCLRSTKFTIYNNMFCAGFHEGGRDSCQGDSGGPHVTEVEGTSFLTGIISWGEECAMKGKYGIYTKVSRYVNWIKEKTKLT"
reported_result = 96.5

[[record]]
protein = "FIXa-R318Y/R338E/T343R/R403E/E410N (protein) chain 1: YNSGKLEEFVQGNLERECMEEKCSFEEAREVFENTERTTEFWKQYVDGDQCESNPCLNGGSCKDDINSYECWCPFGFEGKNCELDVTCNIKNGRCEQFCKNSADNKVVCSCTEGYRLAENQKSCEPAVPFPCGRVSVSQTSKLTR chain 2: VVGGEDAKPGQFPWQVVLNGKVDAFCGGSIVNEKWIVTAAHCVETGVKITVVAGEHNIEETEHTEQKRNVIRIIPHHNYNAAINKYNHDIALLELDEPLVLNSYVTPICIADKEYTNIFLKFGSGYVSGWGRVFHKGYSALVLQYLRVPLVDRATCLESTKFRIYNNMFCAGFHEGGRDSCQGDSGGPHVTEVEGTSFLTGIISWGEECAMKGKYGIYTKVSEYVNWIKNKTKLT"
reported_result = 22.3

[[record]]
protein = "FIXa-D104N/K106S/K247N/N249S/N260S (protein) chain 1: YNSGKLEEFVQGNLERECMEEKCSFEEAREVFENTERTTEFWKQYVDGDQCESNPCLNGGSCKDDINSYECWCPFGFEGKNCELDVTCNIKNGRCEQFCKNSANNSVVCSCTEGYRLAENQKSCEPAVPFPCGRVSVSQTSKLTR chain 2: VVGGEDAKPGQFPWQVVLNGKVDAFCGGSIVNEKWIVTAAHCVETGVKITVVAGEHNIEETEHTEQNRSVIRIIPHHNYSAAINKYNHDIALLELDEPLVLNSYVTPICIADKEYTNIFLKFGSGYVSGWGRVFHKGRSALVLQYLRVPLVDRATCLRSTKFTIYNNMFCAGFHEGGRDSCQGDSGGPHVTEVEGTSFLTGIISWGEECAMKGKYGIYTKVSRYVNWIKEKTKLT"
reported_result = 61.2

[[record]]
protein = "FIXa-Y155F/N260S/R318Y/R338E/R403E/E410N (protein) chain 1: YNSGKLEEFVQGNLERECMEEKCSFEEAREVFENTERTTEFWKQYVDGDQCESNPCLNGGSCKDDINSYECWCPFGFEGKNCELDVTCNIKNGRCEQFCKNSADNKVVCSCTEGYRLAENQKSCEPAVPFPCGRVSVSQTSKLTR chain 2: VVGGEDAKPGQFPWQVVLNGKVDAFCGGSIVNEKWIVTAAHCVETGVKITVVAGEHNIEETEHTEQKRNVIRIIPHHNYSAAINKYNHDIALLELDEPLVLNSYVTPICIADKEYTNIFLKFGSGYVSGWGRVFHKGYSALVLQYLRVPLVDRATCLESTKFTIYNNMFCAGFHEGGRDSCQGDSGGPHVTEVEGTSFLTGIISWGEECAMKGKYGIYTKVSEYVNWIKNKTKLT"
reported_result = 83.9

